Data origin, for the record: the supplement of paper PMC12636033

Tested on: 2Sb-muMax20 (muMax20 with two 1,3-bis(methyl)benzene Cys staples, A13C/A17C and Q88C/A92C, C-terminal Lys)
Test name: PBM 8-mer E-score (E-score (rank enrichment, -0.5 to 0.5)); higher = stronger preferential binding
Over roughly 33,000 sequences, “E-score (rank enrichment, -0.5 to 0.5)” has its median near -0.0028; the highest 2% begin near 0.23. The full list was thinned out, with the highest values kept by preference.
Measurement name: PBM 8-mer E-score
Would you mind answering with just the numeric figure?

// solved cases for PBM 8-mer E-score follow
INSERT INTO assay_data (residue_codes, observed_result) VALUES
  ('GGGGGAAA', 0.0837),
  ('CGCGCGCG', -0.0393),
  ('TAATGGGA', 0.147),
  ('CTCTTAAG', -0.0478),
  ('TGGGGAAA', 0.314);

Please give the measured PBM 8-mer E-score for this sequence: `GTCGGGCA`
-0.103

Then what about the sequence `CTATTTAA` ?
-0.0132

Likewise for `AATTAATA` ?
0.217

Follow-up entry: `ATGGGGAG`
0.252

What about this sequence? `CACAGCAA`
0.0823

Then `GATTAAGA` ?
0.129

Follow-up entry: `CTGGGGAA`
-0.106

Next record, please: `GAGTGCCA`
-0.0641
